molecular target: GABAB receptors (Rattus norvegicus); assay type: binding
Sequence (O88871 41-940): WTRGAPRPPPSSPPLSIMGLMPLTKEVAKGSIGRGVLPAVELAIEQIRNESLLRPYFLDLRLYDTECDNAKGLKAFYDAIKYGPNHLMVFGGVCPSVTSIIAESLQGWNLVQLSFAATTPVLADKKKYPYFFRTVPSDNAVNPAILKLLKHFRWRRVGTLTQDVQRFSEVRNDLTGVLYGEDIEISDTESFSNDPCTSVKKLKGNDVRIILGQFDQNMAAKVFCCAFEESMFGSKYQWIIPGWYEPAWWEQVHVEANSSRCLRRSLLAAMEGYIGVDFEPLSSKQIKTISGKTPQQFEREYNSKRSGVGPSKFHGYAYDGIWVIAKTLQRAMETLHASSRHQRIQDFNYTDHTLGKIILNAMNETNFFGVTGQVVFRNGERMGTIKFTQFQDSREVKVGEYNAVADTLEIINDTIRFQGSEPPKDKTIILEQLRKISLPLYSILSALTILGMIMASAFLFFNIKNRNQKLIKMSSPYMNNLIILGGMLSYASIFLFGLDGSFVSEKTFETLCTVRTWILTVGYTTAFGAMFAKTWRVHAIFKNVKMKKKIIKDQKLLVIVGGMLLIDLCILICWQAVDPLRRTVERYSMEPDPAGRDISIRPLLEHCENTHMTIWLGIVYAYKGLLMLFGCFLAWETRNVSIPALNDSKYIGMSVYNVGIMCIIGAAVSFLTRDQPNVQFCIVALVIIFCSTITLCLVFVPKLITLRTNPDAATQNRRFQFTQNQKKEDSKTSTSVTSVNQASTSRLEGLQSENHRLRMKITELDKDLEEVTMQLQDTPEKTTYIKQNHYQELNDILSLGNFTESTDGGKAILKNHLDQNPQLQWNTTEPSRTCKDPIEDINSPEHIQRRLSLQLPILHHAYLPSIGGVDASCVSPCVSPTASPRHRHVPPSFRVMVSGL
Sequence (Q9Z0U4 17-960): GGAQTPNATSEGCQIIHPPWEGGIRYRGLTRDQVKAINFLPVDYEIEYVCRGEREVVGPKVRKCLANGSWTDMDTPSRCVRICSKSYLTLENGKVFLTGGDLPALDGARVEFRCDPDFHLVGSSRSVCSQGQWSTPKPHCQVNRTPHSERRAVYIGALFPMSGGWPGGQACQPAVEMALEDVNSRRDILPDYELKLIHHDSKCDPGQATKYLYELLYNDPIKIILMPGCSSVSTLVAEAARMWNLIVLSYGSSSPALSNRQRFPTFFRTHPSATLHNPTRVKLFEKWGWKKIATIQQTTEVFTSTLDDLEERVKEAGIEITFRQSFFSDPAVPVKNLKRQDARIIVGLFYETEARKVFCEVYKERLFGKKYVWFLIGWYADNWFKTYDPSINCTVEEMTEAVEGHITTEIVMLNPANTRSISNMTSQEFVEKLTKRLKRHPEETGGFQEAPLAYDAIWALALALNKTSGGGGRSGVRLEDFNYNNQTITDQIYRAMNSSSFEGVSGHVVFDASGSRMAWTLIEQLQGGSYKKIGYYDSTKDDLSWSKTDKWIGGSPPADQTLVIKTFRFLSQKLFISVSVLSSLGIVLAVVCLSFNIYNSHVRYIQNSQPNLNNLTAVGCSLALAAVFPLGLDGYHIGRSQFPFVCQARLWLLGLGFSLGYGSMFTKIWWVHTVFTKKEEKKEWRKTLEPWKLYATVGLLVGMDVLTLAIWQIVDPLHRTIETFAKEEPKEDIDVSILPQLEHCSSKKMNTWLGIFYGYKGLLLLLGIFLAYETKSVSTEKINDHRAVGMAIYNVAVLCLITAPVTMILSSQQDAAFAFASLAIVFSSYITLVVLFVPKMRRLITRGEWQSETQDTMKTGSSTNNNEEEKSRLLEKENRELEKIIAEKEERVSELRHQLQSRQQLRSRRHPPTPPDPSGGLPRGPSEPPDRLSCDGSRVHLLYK
Below, each entry is listed alongside its reported Percent displacement of [3H]GABA at 1 Mm, GABAB.
Write the answer as a number in %, unit excluded.

{"compound": "O=C(O)Cc1cccc(OCCc2ccccc2)c1", "readout_number": "−1.2"}

Field Percent displacement of [3H]GABA at 1 Mm, GABAB (entry O=C(O)Cc1cccc(OCc2ccccc2)c1 ) reads −4.7

# Percent displacement of [3H]GABA at 1 Mm, GABAB (compound: O=C(O)Cc1cccc(Oc2ccccc2)c1 ) is −5.5

Entry O=C(O)CCCOc1ccccc1 [Compound 8, reference compound] ; Percent displacement of [3H]GABA at 1 Mm, GABAB = 6.5

###

target: Adrenergic, Beta, Non-selective; type: binding; conditions: read-out: Ki (M) Ref. Cpd.
Counter-ions that a name gives are not always drawn.
property_measured: Ki (M)
Dear colleague, please return just the value in M, with no unit written.

What the record says about C=CCc1ccccc1OCC(O)CNC(C)C (stereo not shown) [Alprenolol HCl, reference compound] : Ki is 3.33e-09

###

biological target: Muscarinic, Non-selective, Peripheral; type: binding; settings: read-out: Ki (M) Ref. Cpd.
Counter-ions that a name gives are not always drawn.
property_measured: Ki (M)
Answer with a number only, understood to be in M.

Value of measured Ki for the entry CN1[C@@H]2CC[C@H]1C[C@@H](OC(=O)C(CO)c1ccccc1)C2 (stereo partly shown) [Atropine sulfate, reference compound] : 5.8e-10

###

biological target: Muscarinic, Non-selective, Central; type: binding; conditions: read-out: Ki (M) Ref. Cpd.
Structures can show the parent of a compound that is named as a salt.
property_measured: Ki

Per the records, this compound ( CN1[C@@H]2CC[C@H]1C[C@@H](OC(=O)C(CO)c1ccccc1)C2 (stereo partly shown) [Atropine sulfate, reference compound] ) has Ki equal to 1.26e-10 M

###

system: GABAA receptors; type: binding, rat
Listing: Percent displacement of [3H]GABA at 1 Mm, GABAA of selected compounds
Write the value in % as a bare number.

The compound identified as O=C(O)Cc1cccc(OCCc2ccccc2)c1 registered its Percent displacement of [3H]GABA at 1 Mm, GABAA at 15.1

get_value(item= O=C(O)CCCOc1ccccc1 [Compound 8, reference compound] , readout=Percent displacement of [3H]GABA at 1 Mm, GABAA) returns 6.3

Record O=C(O)Cc1cccc(Oc2ccccc2)c1 , field Percent displacement of [3H]GABA at 1 Mm, GABAA: 2.7

Value of Percent displacement of [3H]GABA at 1 Mm, GABAA reported for the compound O=C(O)Cc1cccc(OCc2ccccc2)c1 is 11.0
